- target_or_test_system: recombinant autotaxin (Homo sapiens)
- Construct: made in house; host or cells: Hi5 insect cells (baculovirus)
- protocol_text: Autotaxin test (enzyme test), Amplex Red fluorescence with LPC substrate
- Format: biochemical
- protocol_conditions: 10 μM compound; autotaxin inhibition (enzyme test); read-out: % Control at 10 μM
experimental_readout: remaining activity at 10 µM (%)
The reply should be a number in %, with the unit left off.

A selection of reference data follows.
compound | remaining activity at 10 µM (%)
CC(C)(C)CC(=O)N1CCN2C(=O)c3cc(-c4cc(Cl)cc(Cl)c4)ccc3NC(=O)C2C1 (stereo not shown) | 65
Cc1ccc(-c2ccc3c(c2)C(=O)N2CCN(C(=O)[C@@H]4CCCN4C4CCNCC4)C[C@@H]2C(=O)N3)c(F)c1F | 8
O=C1Nc2ccc(-c3ccc(Cl)cc3)cc2C(=O)N2CCN(C(=O)c3cnc[nH]3)CC12 (stereo not shown) | 55

Name the recorded remaining activity at 10 µM of the item O=C1Nc2ccc(-c3ccc(Cl)cc3F)cc2C(=O)N2CCN(C(=O)[C@@H]3CCCN3C3CCNCC3)C[C@H]12 in your answer. 16

====

- target_or_test_system: recombinant autotaxin (Homo sapiens, UniProt Q13822)
- Construct: made in house; host or cells: Hi5 insect cells (baculovirus)
- protocol_text: Autotaxin test (enzyme test), Amplex Red fluorescence with LPC substrate
- Format: biochemical
- protocol_conditions: 10 μM compound; autotaxin inhibition (enzyme test); read-out: % Control at 10 μM
experimental_readout: remaining activity at 10 µM (%)
The reply should be a number in %, with the unit left off.

A selection of reference data follows.
compound | experimental_readout | recorded_measurement
COc1ccc(-c2ccc3c(c2)C(=O)N2CCN(C(=O)CC(C)(C)C)C[C@@H]2C(=O)N3)cc1 | remaining activity at 10 µM | 47
O=C1Nc2ccc(-c3ccc(Cl)cc3)cc2C(=O)N2CCN(C(=O)[C@H](O)C3CCCCC3)CC12 (stereo partly drawn) | remaining activity at 10 µM | 5

Shifting focus to the compound that follows.
Name the recorded remaining activity at 10 µM of the item O=C1Nc2ccc(-c3ccc(Cl)cc3F)cc2C(=O)N2CCN(C(=O)[C@@H]3C[C@@H](O)CN3)CC12 (stereo partly drawn) in your answer. 28

====

# Lookup of reported remaining activity at 10 µM keyed by entry
- target_or_test_system: recombinant autotaxin (Homo sapiens, UniProt Q13822)
- Construct: made in house; host or cells: Hi5 insect cells (baculovirus)
- protocol_text: Autotaxin test (enzyme test), Amplex Red fluorescence with LPC substrate
- Format: biochemical
- protocol_conditions: 10 μM compound; autotaxin inhibition (enzyme test); read-out: % Control at 10 μM

compound | target_or_test_system | remaining activity at 10 µM
CC(C)(C)CCN1CCN2C(=O)c3cc(-c4ccc(Cl)cc4F)ccc3NC(=O)C2C1 (stereo not drawn) | recombinant autotaxin (Homo sapiens, UniProt Q13822) | 72%

Name the recorded remaining activity at 10 µM of the item O=C1Nc2ccc(-c3ccc(Cl)cc3)cc2C(=O)N2CCN(C(=O)[C@@H]3CCCCN3)CC12 (stereo partly drawn) in your answer. 82%

Name the recorded remaining activity at 10 µM of the item Cn1cncc1C(=O)N1CCN2C(=O)c3cc(-c4ccc(Cl)cc4F)ccc3NC(=O)C2C1 (stereo not drawn) in your answer. 19%

Name the recorded remaining activity at 10 µM of the item CC(C)(C)CC(=O)N1CCN2C(=O)c3cc(-c4ccc(Cl)s4)ccc3NC(=O)C2C1 (stereo not drawn) in your answer. 6%

Name the recorded remaining activity at 10 µM of the item COCCN1C(=O)C2CN(C(=O)CC(C)(C)C)CCN2C(=O)c2cc(-c3ccc(Cl)cc3)ccc21 (stereo not drawn) in your answer. -9%

Name the recorded remaining activity at 10 µM of the item Cc1ccc(-c2ccc3c(c2)C(=O)N2CCN(C(=O)CC(C)(C)C)CC2C(=O)N3)cc1 (stereo not drawn) in your answer. 22%

Name the recorded remaining activity at 10 µM of the item CC(C)(C)CC(=O)N1CCN2C(=O)c3cc(OC(F)(F)F)ccc3NC(=O)C2C1 (stereo not drawn) in your answer. 27%

Name the recorded remaining activity at 10 µM of the item CN1CCN(C(=O)CN2C(=O)C3CN(C(=O)CC(C)(C)C)CCN3C(=O)c3cc(-c4ccc(Cl)cc4F)ccc32)CC1 (stereo not drawn) in your answer. 11%

Name the recorded remaining activity at 10 µM of the item O=C1Nc2ccc(-c3ccccc3F)cc2C(=O)N2CCN(C(=O)C3CCCCC3)C[C@H]12 in your answer. 41%
